- target.or.system: equine FcRn (large alpha subunit p51) / equine beta-2-microglobulin complex, biotinylated (equine) (UniProt P30441)
- experimental.protocol: SPR (Biacore), pH 6

binder	Kd (nM)
equine IgG1 D312T (antibody, part only; not given: Variable domains, not shown: another chain or arm of the molecule) constant: ASTTAPKVFALAPGCGTTSDSTVALGCLVSGYFPEPVKVSWNSGSLTSGVHTFPSVLQSSGFYSLSSMVTVPASTWTSETYICNVVHAASNFKVDKRIEPIPDNHQKVCDMSKCPKCPAPELLGGPSVFIFPPNPKDTLMITRTPEVTCVVVDVSQENPDVKFNWYMDGVEVRTATTRPKEEQFNSTYRVVSVLRIQHQTWLSGKEFKCKVNNQALPQPIERTITKTKGRSQEPQVYVLAPHPDELSKSKVSVTCLVKDFYPPEINIEWQSNGQPELETKYSTTQAQQDSDGSYFLYSKLSVDRNRWQQGTTFTCGVMHEALHNHYTQKNVSKNPGK	20.3
